# Test system: DUX4 target MBD3L2 expression in FSHD2 muscle cells
# experiment_description: qPCR of DUX4 target MBD3L2 expression in differentiating MB200 FSHD2 muscle cells
# Format: cell-based, human
# particulars: Homo sapiens, 40 hours, MBD3L2 RNA
measured_property: EC50 (nM)

As a guide, the following entries are already answered.
Cn1c(=O)c(Oc2ccc(F)cc2F)cc2cnc(NC(CCO)CCO)nc21 :: 2.2
O=c1ncn2nc(Sc3ccc(F)cc3F)ccc2c1-c1c(Cl)cccc1Cl :: 13

1 = NC(=O)c1ccc(N(C(N)=O)c2c(F)cccc2F)nc1-c1ccc(F)cc1F
2 = CCCNC(=O)c1cn2ncnc(Nc3cc(C(=O)NC4CC4)ccc3C)c2c1C
# input Which numeric EC50 is bigger, that of 1 or that of 2 ? # reply format: chosen label
# output 1
